# protein stability index per entry
B1: CLK3 (parent)
chain: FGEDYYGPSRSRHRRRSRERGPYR

Variants of: B1
Test: protein stability index of a GFP-peptide fusion (GPS, HEK-293T) (PSI 1-6); higher = more stable;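 further: lentivirally expressed fusions sorted by FACS into six bins by GFP to DsRed ratio, PSI derived from sequencing read proportions per bin multiplied by bin number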
Settings: c terminus: a fixed tail appended
reported.endpoint: protein stability index

1. FGEDYYGPSTSRHRRRSRERGPYR [R10T] :: 2.41
2. FIEDYYGPSRSRHRRRSRERGPYR [G2I] :: 1.99
3. FGERYYGPSRSRHRRRSRERGPYR [D4R] :: 3.34
4. WGEDYYGPSRSRHRRRSRERGPYR [F1W] :: 4.57
5. FGEDYYGPSRPRHRRRSRERGPYR [S11P] :: 3.1
6. FGEDYYGYSRSRHRRRSRERGPYR [P8Y] :: 2.99
7. FGEDYYGPSKSRHRRRSRERGPYR [R10K] :: 2.58
8. FGEDYYGPSRSRHRRRSRERKPYR [G21K] :: 3.15
9. FGEDYYGPSRSRCRRRSRERGPYR [H13C] :: 2.29
10. FGEDYYGPSRLRHRRRSRERGPYR [S11L] :: 1.92
11. FGEDYYGPFRSRHRRRSRERGPYR [S9F] :: 2.21
12. FGEDYYGPSRSRHNRRSRERGPYR [R14N] :: 2.89
13. FGEDYYGPSMSRHRRRSRERGPYR [R10M] :: 3.16
14. FGEDYYMPSRSRHRRRSRERGPYR [G7M] :: 3.06
15. FGEDYYGPSRSRHRRRSRERGPWR [Y23W] :: 2.46
16. FGEDYYGPSRSRHRRRSTERGPYR [R18T] :: 2.32
17. FGEMYYGPSRSRHRRRSRERGPYR [D4M] :: 2.29
18. FGEDYYGPSRSRVRRRSRERGPYR [H13V] :: 2.16
19. FGEDKYGPSRSRHRRRSRERGPYR [Y5K] :: 5.11
20. FGEDYYGPSRSRHRRRSRTRGPYR [E19T] :: 3.81
21. FGEAYYGPSRSRHRRRSRERGPYR [D4A] :: 3.2
22. FGEDYYGPSRSRHRRRDRERGPYR [S17D] :: 2.58
23. FGIDYYGPSRSRHRRRSRERGPYR [E3I] :: 4.08
24. CGEDYYGPSRSRHRRRSRERGPYR [F1C] :: 4.54
25. FGEDYYGPSRIRHRRRSRERGPYR [S11I] :: 2.56
26. FGEDYYGPSRSRHRRRSREPGPYR [R20P] :: 2.65
27. KGEDYYGPSRSRHRRRSRERGPYR [F1K] :: 4.99
28. FGEDYYGPSRSRSRRRSRERGPYR [H13S] :: 2.52
29. FMEDYYGPSRSRHRRRSRERGPYR [G2M] :: 3.85
30. FGEDYYGPSRSRHRRRVRERGPYR [S17V] :: 2.86
31. FGEDYYGPSRSRHRRRSRERGPYN [R24N] :: 2.46
32. FGELYYGPSRSRHRRRSRERGPYR [D4L] :: 2.5
33. FGEDYYGPSRDRHRRRSRERGPYR [S11D] :: 2.57
34. FGEDYYGPSRSRHRNRSRERGPYR [R15N] :: 2.47
35. AGEDYYGPSRSRHRRRSRERGPYR [F1A] :: 4.83
36. FGMDYYGPSRSRHRRRSRERGPYR [E3M] :: 3.83
37. FGEKYYGPSRSRHRRRSRERGPYR [D4K] :: 3.44
38. FQEDYYGPSRSRHRRRSRERGPYR [G2Q] :: 2.49
39. FGEDYYGPSRVRHRRRSRERGPYR [S11V] :: 2.35
40. FGEDYYGPSRSRHRRRSRERPPYR [G21P] :: 2.95
41. FGEDYYGPSRSRHRRRSRERGPHR [Y23H] :: 2.38
42. FGEDYYGPHRSRHRRRSRERGPYR [S9H] :: 2.33
43. FGEDYYGPSRSRHRRRSRERGPYP [R24P] :: 3.48
44. FGEEYYGPSRSRHRRRSRERGPYR [D4E] :: 3.79
45. FGEDYYGPSRSRHRRRSRERGTYR [P22T] :: 2.82
46. FGEDYYGPSRSRHRRRSRERAPYR [G21A] :: 2.69
47. FGEDYYGPSRSRHTRRSRERGPYR [R14T] :: 2.42
48. FGEDYYGPSRSRHRRRSRERYPYR [G21Y] :: 3.37
49. FGEDYYGPDRSRHRRRSRERGPYR [S9D] :: 2.84
50. FTEDYYGPSRSRHRRRSRERGPYR [G2T] :: 2.65
51. FGEDYYGPSRSRHRRESRERGPYR [R16E] :: 2.86
52. FGEDTYGPSRSRHRRRSRERGPYR [Y5T] :: 5.24
53. FGEDYYGPSRSIHRRRSRERGPYR [R12I] :: 1.95
54. FGEDYYGWSRSRHRRRSRERGPYR [P8W] :: 1.53
55. FGEDYYGPSRSRHKRRSRERGPYR [R14K] :: 3.03
56. EGEDYYGPSRSRHRRRSRERGPYR [F1E] :: 5.1
57. FGEDYYGPSRSRHRRTSRERGPYR [R16T] :: 2.2
58. FGEDYYGPSRSRHIRRSRERGPYR [R14I] :: 2.41
59. FGEDLYGPSRSRHRRRSRERGPYR [Y5L] :: 4.47
60. FGEDYRGPSRSRHRRRSRERGPYR [Y6R] :: 4.67
61. FGEDYYGPSRSRHRRRSRERGWYR [P22W] :: 3.26
62. FGEDYYGPSASRHRRRSRERGPYR [R10A] :: 2.9
63. FGEDYYGPSRSRHRRRSRERGYYR [P22Y] :: 2.39
64. GGEDYYGPSRSRHRRRSRERGPYR [F1G] :: 4.79
65. FGEDYYGPSRSRHRRRSRERGPPR [Y23P] :: 2.61
66. FGEDYYGPSRSRHRRRSRERGMYR [P22M] :: 2.54
67. FGEDYYGPMRSRHRRRSRERGPYR [S9M] :: 1.69
68. FGKDYYGPSRSRHRRRSRERGPYR [E3K] :: 3.96
69. FGEDYYGPSRSRHRRRSRERSPYR [G21S] :: 1.41
70. FGEDYYGPSRSRHRRRSREGGPYR [R20G] :: 2.21
71. FGEDYYGPSRSRKRRRSRERGPYR [H13K] :: 3.53
72. FDEDYYGPSRSRHRRRSRERGPYR [G2D] :: 5.06
73. FGEDYYRPSRSRHRRRSRERGPYR [G7R] :: 3.07
74. FGEIYYGPSRSRHRRRSRERGPYR [D4I] :: 3.86
75. FGEDYYGPSRSRHRERSRERGPYR [R15E] :: 1.95
76. FKEDYYGPSRSRHRRRSRERGPYR [G2K] :: 4.75
77. FGEDYYGPSRSRHRRRSRERDPYR [G21D] :: 2.47
78. FGEDYYGPSRSNHRRRSRERGPYR [R12N] :: 2.52
79. FGEDYYGCSRSRHRRRSRERGPYR [P8C] :: 2.48
80. FEEDYYGPSRSRHRRRSRERGPYR [G2E] :: 4.89
81. FGEDYYGPSRSRHRCRSRERGPYR [R15C] :: 1.57
82. FGEDYYGPSRSRYRRRSRERGPYR [H13Y] :: 2.52
83. FGEDYYGPSRSRHRRRSRERGPMR [Y23M] :: 2.48
84. FGEDYYGPSGSRHRRRSRERGPYR [R10G] :: 3.15
85. FGETYYGPSRSRHRRRSRERGPYR [D4T] :: 3.38

Recorded values, source the supplement of paper PMC10567573.
